# target-system: Cyclin-dependent kinase 12 (Homo sapiens, UniProt Q9NYV4)
# Sequence (Q9NYV4 whole entry, looked up): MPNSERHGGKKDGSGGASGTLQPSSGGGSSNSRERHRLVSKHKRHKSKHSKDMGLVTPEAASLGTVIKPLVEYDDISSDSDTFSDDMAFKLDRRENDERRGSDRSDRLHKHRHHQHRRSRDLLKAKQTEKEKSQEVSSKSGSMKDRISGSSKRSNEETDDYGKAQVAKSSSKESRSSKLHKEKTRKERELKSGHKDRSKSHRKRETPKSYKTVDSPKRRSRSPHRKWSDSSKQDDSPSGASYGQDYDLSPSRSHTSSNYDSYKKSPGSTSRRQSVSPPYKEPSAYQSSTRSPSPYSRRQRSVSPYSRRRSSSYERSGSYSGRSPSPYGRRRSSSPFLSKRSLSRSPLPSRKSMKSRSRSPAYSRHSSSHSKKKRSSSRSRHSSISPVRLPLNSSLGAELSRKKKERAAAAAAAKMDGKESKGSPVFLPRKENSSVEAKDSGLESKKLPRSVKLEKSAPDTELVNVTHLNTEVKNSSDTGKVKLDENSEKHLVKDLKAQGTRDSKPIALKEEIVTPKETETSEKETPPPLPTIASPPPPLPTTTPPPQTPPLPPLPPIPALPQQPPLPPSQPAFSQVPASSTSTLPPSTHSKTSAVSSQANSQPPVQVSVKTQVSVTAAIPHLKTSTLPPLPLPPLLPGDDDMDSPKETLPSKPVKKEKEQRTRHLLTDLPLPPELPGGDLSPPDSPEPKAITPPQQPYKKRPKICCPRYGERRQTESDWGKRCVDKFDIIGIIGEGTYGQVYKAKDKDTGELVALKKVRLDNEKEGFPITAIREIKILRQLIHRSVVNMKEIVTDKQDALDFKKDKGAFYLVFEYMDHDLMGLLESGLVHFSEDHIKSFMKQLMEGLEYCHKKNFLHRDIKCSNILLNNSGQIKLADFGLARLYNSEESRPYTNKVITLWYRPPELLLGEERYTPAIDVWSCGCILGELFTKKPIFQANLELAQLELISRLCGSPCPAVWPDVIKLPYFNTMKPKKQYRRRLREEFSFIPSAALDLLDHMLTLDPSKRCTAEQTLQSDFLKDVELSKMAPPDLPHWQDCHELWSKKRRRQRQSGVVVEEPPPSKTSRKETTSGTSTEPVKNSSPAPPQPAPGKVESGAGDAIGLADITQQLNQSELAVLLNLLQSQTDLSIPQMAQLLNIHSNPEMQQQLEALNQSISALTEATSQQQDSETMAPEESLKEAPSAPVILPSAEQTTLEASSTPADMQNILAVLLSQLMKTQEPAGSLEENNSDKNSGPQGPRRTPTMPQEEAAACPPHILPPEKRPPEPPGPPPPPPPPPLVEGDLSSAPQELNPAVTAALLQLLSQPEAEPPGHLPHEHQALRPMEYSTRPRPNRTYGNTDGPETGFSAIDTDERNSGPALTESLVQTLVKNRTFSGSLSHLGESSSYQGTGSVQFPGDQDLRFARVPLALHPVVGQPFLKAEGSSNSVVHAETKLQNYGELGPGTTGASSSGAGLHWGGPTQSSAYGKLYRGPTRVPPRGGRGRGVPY
# test-details: Inhibition of CDK12 (unknown origin) at 1 uM in presence of ATP by kinase-glo plus luminescent assay relative to control
measured-endpoint: inhibition (%)

compound | readout-number
O=C(c1cc(Cc2n[nH]c(=O)c3ccccc23)ccc1F)N1CCN(C(=O)C2CC2)CC1 [OLAPARIB] | 7
NC(=O)c1cccc2[nH]c(NC(=O)c3ccc(C(=O)N4CCC(Nc5ncc(F)cn5)CC4)cc3)nc12 | 38.8
NC(=O)c1cccc2[nH]c(NC(=O)c3ccc(C(=O)N4CCC(Nc5ncc(C(F)(F)F)cn5)CC4)cc3)nc12 | 54.6

(A) NC(=O)c1cccc2[nH]c(NC(=O)c3ccc(C(=O)N4CCN(c5ncc(F)cn5)CC4)cc3)nc12
(B) Cc1cnc(NC2CCN(C(=O)c3ccc(C(=O)Nc4nc5c(C(N)=O)cccc5[nH]4)cc3)CC2)nc1
Q: inhibition comparison. Which is larger, A or B ? Please respond with the label that marks your chosen entry.
Result: B
